tested on: Sclerotinia sclerotiorum; assay: Antifungal activity against Sclerotinia sclerotiorum; format: functional, organism-based
assayMetric: EC50 (µg/mL)

compound: O=C1CCCCC1S(=O)(=O)Nc1ccccc1Br (stereo not drawn)
observedResult: 47.8
//
compound: O=C1CCCCC1S(=O)(=O)N1CCOCC1 (stereo not drawn)
observedResult: 331
//
compound: O=C1CCCCC1S(=O)(=O)Nc1ccccc1Cl (stereo not drawn)
observedResult: 69.4

(a) O=C1CCCCCC1S(=O)(=O)Nc1ccc(Cl)c(Cl)c1 (stereo not drawn)
(b) O=C1CCCCC1S(=O)(=O)Nc1ccc(Cl)c(Cl)c1 (stereo not drawn)
Exercise: Between the two listed entries a and b , which has its EC50 at the higher number? Lab log: write the label of the selected item as the result.
Key: b
(b: 24.2 µg/mL, a: 16.4 µg/mL)

(a) O=C1CCCCC1S(=O)(=O)Nc1cc(C(F)(F)F)cc(C(F)(F)F)c1 (stereo not drawn)
(b) O=C1CCCCC1S(=O)(=O)Nc1cccc(C(F)(F)F)c1 (stereo not drawn)
(c) Cc1cccc(NS(=O)(=O)C2CCCCCC2=O)c1C (stereo not drawn)
(d) O=C1CCCCC1S(=O)(=O)Nc1cc(C(F)(F)F)ccc1C(F)(F)F (stereo not drawn)
Exercise: Thanks in advance: please rank these 4 entries by EC50, highest to lowest. Answer by listing the labels in the order asked for.
Key: b, d, c, a

(I) Cc1cccc(NS(=O)(=O)C2CCCCC2=O)c1C (stereo not drawn)
(II) Cc1cc(F)ccc1NS(=O)(=O)C1CCCCC1=O (stereo not drawn)
(III) O=C1CCCCCC1S(=O)(=O)Nc1cc(C(F)(F)F)cc(C(F)(F)F)c1 (stereo not drawn)
(IV) COc1cc(OC)nc(NS(=O)(=O)C2CCCCC2=O)n1 (stereo not drawn)
Exercise: Rank items: key EC50, increasing. Respond with an ordered listing of the labels, as requested.
Key: III, I, II, IV
(III: 8.05 µg/mL, I: 59.3 µg/mL, II: 137 µg/mL, IV: 197 µg/mL)

(I) Cc1ccc(NS(=O)(=O)C2CCCCC2=O)c(C)c1 (stereo not drawn)
(II) O=C1CCCCC1S(=O)(=O)Nc1ccc(Cl)cc1C(F)(F)F (stereo not drawn)
Exercise: # compare EC50 for I vs II ; return the one with the smaller value Refer to your chosen item by its label in the answer.
Key: II
(II: 47.5 µg/mL, I: 112 µg/mL)

(a) Cc1ccc(NS(=O)(=O)C2CCCCC2=O)cc1 (stereo not drawn)
(b) O=C1CCCCC1S(=O)(=O)Nc1ccc(Cl)cc1 (stereo not drawn)
Exercise: Would you mind telling me which has the lower recorded EC50 between a and b ? Reply briefly: the label of your chosen item.
Key: b

----------
system: Botrytis cinerea; assay: Antifungal activity against Botrytis cinerea Pers; format: functional, organism-based
assayMetric: EC50 (µg/mL)

compound: COc1cc(OC)nc(NS(=O)(=O)C2CCCCC2=O)n1 (stereo not drawn)
EC50 (µg/mL): 28.6

compound: Cc1cccc(NS(=O)(=O)C2CCCCCC2=O)c1C (stereo not drawn)
EC50 (µg/mL): 11.6

compound: O=C1CCCCC1S(=O)(=O)Nc1ccc(Cl)cc1C(F)(F)F (stereo not drawn)
EC50 (µg/mL): 2.12

(A) O=C1CCCCC1S(=O)(=O)Nc1ccccc1Cl (stereo not drawn)
(B) Cc1ccc(NS(=O)(=O)C2CCCCC2=O)cc1 (stereo not drawn)
(C) O=C1CCCCC1S(=O)(=O)Nc1cc(C(F)(F)F)ccc1C(F)(F)F (stereo not drawn)
(D) O=C1CCCCC1S(=O)(=O)Nc1cccc(C(F)(F)F)c1 (stereo not drawn)
(E) O=C1CCCCCC1S(=O)(=O)Nc1ccc(Cl)c(Cl)c1 (stereo not drawn)
Exercise: Rank ascending by EC50. Give the labels in the order specified.
Key: E, C, B, A, D

(I) Cc1cccc(NS(=O)(=O)C2CCCCC2=O)c1C (stereo not drawn)
(II) Cc1cc(F)ccc1NS(=O)(=O)C1CCCCC1=O (stereo not drawn)
Exercise: Looking only at measured EC50, which entry is lower, I or II ? State your choice using its label.
Key: I

----------
test system: Botrytis cinerea; test: Antifungal activity against Botrytis cinerea Pers; assay type: functional, organism-based
assayMetric: EC50 (µg/mL)

compound: O=C1CCCCCC1S(=O)(=O)Nc1cc(C(F)(F)F)cc(C(F)(F)F)c1 (stereo not drawn)
targetUnderTest: Botrytis cinerea
EC50 (µg/mL): 2.43
--
compound: Cc1ccc(NS(=O)(=O)C2CCCCC2=O)c(C)c1 (stereo not drawn)
targetUnderTest: Botrytis cinerea
EC50 (µg/mL): 17
--
compound: O=C1CCCCC1S(=O)(=O)Nc1cc(C(F)(F)F)cc(C(F)(F)F)c1 (stereo not drawn)
targetUnderTest: Botrytis cinerea
EC50 (µg/mL): 3.96
--
compound: O=C1CCCCC1S(=O)(=O)Nc1ccc(Cl)cc1 (stereo not drawn)
targetUnderTest: Botrytis cinerea
EC50 (µg/mL): 17
--
compound: CC12CC1(C)C(=O)N(c1cc(Cl)cc(Cl)c1)C2=O (stereo not drawn)
targetUnderTest: Botrytis cinerea
EC50 (µg/mL): 2.45

(A) O=C1CCCCC1S(=O)(=O)Nc1ccccc1Br (stereo not drawn)
(B) O=C1CCCCC1S(=O)(=O)N1CCOCC1 (stereo not drawn)
(C) O=C1CCCCC1S(=O)(=O)Nc1ccc(Cl)c(Cl)c1 (stereo not drawn)
Exercise: Order each entry by recorded EC50, climbing from the minimum. To answer, arrange all of the labels according to the requested order.
Key: C, A, B
(C: 7.23 µg/mL, A: 50.6 µg/mL, B: 85.2 µg/mL)
